Target: T1, cynomolgus galectin-10-His, WGS isoform (cynomolgus)
T1 construct: also called cynoGal10-WGS; not shown: His tag
T1 chain: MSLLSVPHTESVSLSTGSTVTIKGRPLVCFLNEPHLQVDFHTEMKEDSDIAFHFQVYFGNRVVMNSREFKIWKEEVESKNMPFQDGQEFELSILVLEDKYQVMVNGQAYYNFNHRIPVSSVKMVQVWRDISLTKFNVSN
Experiment: SPR Biacore T3000, scFv-human Fc captured
ASSAY METRIC: kon (M⁻¹ s⁻¹)

# BINDER, RECORDED VALUE
measured = [
    ("8H11 scFv-human Fc (Fc fusion, also called 008H11; not shown: CH2-CH3 constant domains of human IgG1 (pUPEX50 scFv-Fc fusion vector)) scFv: ELQLVESGGGLVQPGGSLRLSCAASGFTFSTNYMNWVRQAPGKGLEWVSGITSGGGRTYYADSVKGRFTISRDNAKNTLYLQMNSLKPEDTALYYCARTDHAWLDAWGQGTLVTVSSGGGGSGGGGSGGGGSQAGLTQPPSVSGTLGKTVTISCAGTSSDVGYGNYVSWYQQLPGTAPKLLIYAVSTRASGIPDRFSGSKSGNTASLTISGLLSEDEADYYCASYRSSNNYVFGGGTKLTVL", "1.75e+06"),
]
